test system: B16 cells; test: Tumor growth inhibitory action test using cancer models in mice (B16 cells); assay type: in vivo; settings: C57BL/6N mouse, B16 cells intradermal; 100 mg/kg/day oral once a day, day 0 to day 10; average of 9 mice per group; read-out: Tumor tissue weight inhibition rate (%)
Counter-ions that a name gives are not always drawn.
Kind request: treat 70% as inclusive, so inhibition in vivo at 100 mg/kg/day at 70% or higher is Y, anything lower is N.

- MOLECULE: "CC(=O)Nc1cc(CSc2ncccc2C(=O)Nc2ccc(OC(F)(F)F)c(Cl)c2)ccn1 [Compound 4-14]"
  ASSAY SYSTEM: "B16 cells"
  LABEL: "N"

Exercise: Determine whether this molecule has inhibition in vivo at 100 mg/kg/day no lower than 70%: CC(=O)Nc1cc(CSc2ncccc2C(=O)Nc2ccc(Cl)cc2)ccn1 [Compound 4-10]
Solution: Y

Exercise: Is inhibition in vivo at 100 mg/kg/day at least 70%? Consider O=C(CO)Nc1cc(CSc2ncccc2C(=O)Nc2ccc(OC(F)(F)F)cc2)ccn1 [Compound 12-1]
Solution: Y

Exercise: Please tell me: is the molecule CC(=O)Nc1cc(CSc2ccsc2C(=O)Nc2cc(C)cc(C)c2)ccn1 [Compound 4-56] at or over 70% in terms of inhibition in vivo at 100 mg/kg/day?
Solution: N

Exercise: Could you verify whether the entry CC(=O)OCC(=O)Nc1cc(CSc2ncccc2C(=O)Nc2cc(C)cc(C)c2)ccn1 [Compound 10-1] shows inhibition in vivo at 100 mg/kg/day of no less than 70%?
Solution: N

Exercise: Form field: inhibition in vivo at 100 mg/kg/day at least 70%? Entry: Cc1cc(C)cc(NC(=O)c2ccccc2SCc2ccnc(N)c2)c1 [Compound 3-20, monohydrochloride]
Solution: N

----------
We begin with a simple list: items and their reported inhibition in vivo at 100 mg/kg/day.
Tested on: B16 cells
Assay: Tumor growth inhibitory action test using cancer models in mice (B16 cells)
Format: in vivo
Conditions: C57BL/6N mouse, B16 cells intradermal; 100 mg/kg/day oral once a day, day 0 to day 10; average of 9 mice per group; read-out: Tumor tissue weight inhibition rate (%)
Description: A tumor growth inhibitory action test of the compounds of the present invention was performed using a tumor growth model in mice, which is one of the widely-used methods of evaluating in vivo anticancer effects of drugs. […] A tumor tissue weight inhibition rate (the average of 9 mice per group), which was used as an index of anticancer effect, was calculated according to the following calculation equation. […]
Structures can show the parent of a compound that is named as a salt.
Respond with the bare value in %.

Please review the following examples before continuing.
- MOLECULE: "Nc1cc(CSc2ncccc2C(=O)Nc2ccc(OC(F)(F)F)cc2)ccn1 [Compound 3-10]"
  UNIT SYMBOL: "%"
  ASSAY RESULT: 85
- MOLECULE: "CC(=O)Nc1cc(CSc2ncccc2C(=O)Nc2cccc(C)c2)ccn1 [Compound 4-20]"
  UNIT SYMBOL: "%"
  ASSAY RESULT: 84
- MOLECULE: "CNC(=O)Nc1cc(CSc2ncccc2C(=O)Nc2cc(C)cc(C)c2)ccn1 [Compound 9-1]"
  UNIT SYMBOL: "%"
  ASSAY RESULT: 43

Now for another entry.
Exercise: Give recorded inhibition in vivo at 100 mg/kg/day. CNc1cc(CSc2ncccc2C(=O)Nc2cc(C)cc(C)c2)ccn1 [Compound 3-6, monohydrochloride]
Solution: 71
